Recorded values, source PubChem BioAssay AID720495.

measured on: Protein AF-9 (Homo sapiens) (UniProt P42568)
Sequence (P42568 whole entry, looked up): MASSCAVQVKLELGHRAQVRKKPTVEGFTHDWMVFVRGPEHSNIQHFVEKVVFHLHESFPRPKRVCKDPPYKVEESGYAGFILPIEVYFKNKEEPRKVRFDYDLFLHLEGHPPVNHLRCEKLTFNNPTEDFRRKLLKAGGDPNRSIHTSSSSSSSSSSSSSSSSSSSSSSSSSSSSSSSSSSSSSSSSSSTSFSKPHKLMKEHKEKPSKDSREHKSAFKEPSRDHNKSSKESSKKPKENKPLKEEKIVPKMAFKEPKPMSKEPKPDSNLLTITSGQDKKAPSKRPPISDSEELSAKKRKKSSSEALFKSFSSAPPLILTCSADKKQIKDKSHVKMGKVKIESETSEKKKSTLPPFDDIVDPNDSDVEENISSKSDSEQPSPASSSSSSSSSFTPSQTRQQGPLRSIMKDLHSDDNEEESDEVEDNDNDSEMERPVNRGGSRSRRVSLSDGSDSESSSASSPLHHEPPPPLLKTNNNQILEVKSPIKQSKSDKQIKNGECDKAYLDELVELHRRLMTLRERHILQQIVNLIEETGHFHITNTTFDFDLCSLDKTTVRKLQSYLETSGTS
method summary: AF9 binding to AF4 blockers, potency – biochemical, cherry-picked samples, plate reader, dose response (AID 720495)
study conditions: biochemical protein-protein interaction assay
Results filed as inconclusive are left out.
measurement kind: AC50

Examples with their reported AC50 follow.
> print(dat)
                                   molecule                               measured.on  measurement.kind  measured
1  COc1ccc2[nH]c3c(C)c4cc[n+](C)cc4c(C)c3c2c1  Protein AF-9 (Homo sapiens) (UniProt P42568)              AC50   3.07 µM
2  CN(C)c1ccc(/C=C2/C[N+](C)(C)C/C(=C/c3ccc(N(C)C)cc3)C2=O)cc1  Protein AF-9 (Homo sapiens) (UniProt P42568)              AC50   2.81 µM
3  c1ccc2c(NCCc3c[nH]c4ccccc34)c3ccccc3nc2c1  Protein AF-9 (Homo sapiens) (UniProt P42568)              AC50    5.9 µM
4  Cc1c(C(=O)NCC(c2ccco2)N(C)C)oc2c(Cl)cccc12 (configuration not stated)  Protein AF-9 (Homo sapiens) (UniProt P42568)              AC50   7.77 µM
5  CC[C@H](C)[C@@H]1NC(=O)c2cc([N+](=O)[O-])cc(F)c2NCCCC[C@@H](C(N)=O)NC(=O)[C@H](CCCCN)NC1=O  Protein AF-9 (Homo sapiens) (UniProt P42568)              AC50   9.36 µM

Tell me AC50 reported for N#C/C(C(N)=O)=c1/ccc2c(c1)N1C3=C(CCCC3)CC3CCCCC31N=2 (configuration not stated)
0.767 µM

Annotate the molecule CCN1CCN(c2ccc(N)cc2)CC1 with its measured AC50.
1.54 µM

Look up and state reported AC50 for C[C@H]1CCCCO[C@H](CN(C)Cc2ccc(Cl)c(Cl)c2)[C@@H](C)CN([C@@H](C)CO)C(=O)c2cc(N(C)C)ccc2O1
10.6 µM

Name the recorded AC50 of the item CCn1c(-c2ccccc2)csc1=Nc1ccc(O)cc1 in your answer.
6.97 µM

Recall and state the measured AC50 for C#CCOCCOCCOCCNc1nc(N2CCN(C(=O)[C@H](CCCCN)n3cc(CCCC)nn3)CC2)nc(N2CCN(C(=O)[C@H](CCCCN)n3cc(CCCC)nn3)CC2)n1 .
11.3 µM

Report AC50 for CC1C(=NO)C(C)C(c2ccc(N(C)C)cc2)NC1c1ccc(N(C)C)cc1 (configuration not stated)
10.4 µM

Using known records, supply AC50 for COc1ccc(C(CCNCc2ccc(N(C)C)cc2)c2ccccc2OC)cc1 (configuration not stated)
6.09 µM

Read the entry CN1CCN(C(c2ccccn2)c2cc(Cl)c3cccnc3c2O)CC1 (configuration not stated) and write its reported AC50.
2.05 µM

Please look at this molecule and report its AC50: NC(N)=N/N=C/c1cn(-c2ccccc2)nc1-c1cccs1
3.92 µM

Entry Oc1c(C(c2ccccc2Cl)N2CCCC2)ccc2cccnc12 (configuration not stated) needs its AC50 filled in; supply it.
0.995 µM

Item CN(C)CC/C=C1/c2ccc(F)cc2Sc2ccc(Cl)cc21 : provide AC50
5.01 µM

Look up and state reported AC50 for CC(=O)c1cccc2c(O)c(C3=Nc4ccccc4C3=O)[nH]c12
3.11 µM

Output AC50 of COc1ccc(NC2=C(NCCO)C(=O)c3ccccc3C2=O)cc1
4.37 µM

# return recorded AC50 for input CSC(=S)N/N=C/c1c[nH]c2ccccc12
11.5 µM

Could you please provide reported AC50 for Cc1[nH]c2ccc(O)cc2c1CCN ? Thanks!
5.35 µM

----------
Each entry below carries its recorded AC50.
measured on: Protein AF-9 (Homo sapiens) (UniProt P42568)
method summary: AF9 binding to AF4 blockers, potency – biochemical, cherry-picked samples, plate reader, dose response (AID 720495)
study conditions: biochemical protein-protein interaction assay
Results filed as inconclusive are left out.

Below, each entry is followed by its recorded AC50 result.
> print(dat)
                                   compound  measurement.kind   measured
1              COc1cc(NCCCCCCN)c2ncccc2c1OC              AC50    2.62 µM
2  C[C@H](CO)N1C[C@H](C)[C@@H](CN(C)Cc2ccc(Oc3ccccc3)cc2)Oc2ccc(N(C)C)cc2C1=O              AC50    10.7 µM
3  CC(=O)OCCNc1cc(N2CCN(C)CC2)c2noc3c2c1C(=O)c1ccccc1-3              AC50    1.94 µM
4  CC1NC(=O)NC1CCCCCC(=O)Nc1ccc(F)cc1 (stereo not drawn)              AC50  < 0.08 µM
5  CCOc1ccc(NCc2cccn2-c2nnc(N3CCC(C(=O)NCCCN4C(C)CCCC4C)CC3)s2)cc1 (stereo not drawn)              AC50    5.36 µM

Please report AC50 for the following compound: CC(C)(C)C1=CC(=Nc2ccccc2N)C=C(C(C)(C)C)C1=O
0.761 µM

Note down AC50 recorded for CCN(CC)c1ccc(CNc2nc3ccccc3n2CCN2CCCCC2)cc1
5.83 µM

Specify measured AC50 for COc1ccccc1C(CCNCc1ccc(N(C)C)cc1)c1ccc(OC(C)C)cc1 (stereo not drawn) .
3.3 µM

Supply measured AC50 of Cc1cccc(NC2=C(NCCO)C(=O)c3ccccc3C2=O)c1 in your reply.
3.55 µM

Answer with the recorded AC50 for the compound listed here: CC(C)Nc1ccc(Nc2ccnc3cc4ccccc4cc23)cc1
2.45 µM

Tell me measured AC50 for CCOc1ccc(NCc2cccn2-c2nnc(N3CCC(C(=O)NCCCN4CCCCC4C)CC3)s2)cc1 (stereo not drawn) please.
4.96 µM

# return recorded AC50 for entry Cn1c(=O)cc2c3c(c(N4CCCCC4)ccc31)C(=O)c1ccccc1-2
8.32 µM

Tell us which AC50 value is on record for CN(C)CCCNC(=S)NCC(c1ccc(Cl)cc1Cl)c1c[nH]c2ccccc12 (stereo not drawn)
10.7 µM

----------
measured on: Protein AF-9 (Homo sapiens)
method summary: AF9 binding to AF4 blockers, potency – biochemical, cherry-picked samples, plate reader, dose response (AID 720495)
study conditions: biochemical protein-protein interaction assay
Results filed as inconclusive are left out.
measurement kind: AC50

A selection of reference data follows.
compound	AC50
C#CCOCCOCCOCCNc1nc(N2CCN(C(=O)[C@H](CCCCN)n3cc([C@@H](N)CC(N)=O)nn3)CC2)nc(N2CCN(C(=O)[C@H](CCCCN)n3cc([C@@H](N)CC(N)=O)nn3)CC2)n1	6.87 µM
CC(C)Nc1ccc(Nc2ccccc2)cc1	10.9 µM
COc1cccc2sc(N(CCCN(C)C)C(=O)c3ccc(S(=O)(=O)N4CCCc5ccccc54)cc3)nc12	4.68 µM
COc1ccc2c(c1)c(=Cc1ccc(N(C)C)cc1)c1cc(-c3ccccc3)[n+](C)n12	2.49 µM

Given Oc1c(C(Nc2cccc(C(F)(F)F)c2)c2ccncc2)ccc2cccnc12 (stereo unspecified) , respond with its AC50.
0.515 µM

Could you please provide reported AC50 for COc1ccc(C(CCNCc2ccc(N(C)C)cc2)C(C)C)cc1 (stereo unspecified) ? Thanks!
2.88 µM

Item CN(C)c1ccc(N=Nc2ccccc2Br)cc1 : provide AC50
10.3 µM

Tell me measured AC50 for CN(C)c1ccc2nc3ccc(=O)cc-3sc2c1 please.
11.3 µM

Give me measured AC50, please, for this compound: O=C(COc1ccc2ccc(=O)oc2c1)Nc1ccc(N2CCCCC2)cc1
9.56 µM

Give a short answer stating reported AC50 for NC(N)=NCCCS(=O)(=O)Nc1ccc(Nc2c3ccccc3nc3cc([N+](=O)[O-])ccc23)cc1 .
2.85 µM

Quickly give me recorded AC50 for CS(=O)(=O)N1CCCCN2[C@H](C1)[C@H](c1ccc(C#Cc3ccccn3)cc1)[C@@H]2CO
7.82 µM

----------
measured on: Protein AF-9 (Homo sapiens) (UniProt P42568)
method summary: AF9 binding to AF4 blockers, potency – biochemical, cherry-picked samples, plate reader, dose response (AID 720495)
study conditions: biochemical protein-protein interaction assay
Results filed as inconclusive are left out.
AC50 reference

Solved entries:
> print(dat)
                                   compound                               measured.on  measured
1  CCN(CC)c1ccc(C(=C2C=CC(=[N+](CC)CC)C=C2)c2ccccc2)cc1  Protein AF-9 (Homo sapiens) (UniProt P42568)  0.685 µM
2  CCC[C@@H](CN1CCC[C@H]1CN1C(N)=NC[C@@H]1Cc1ccccc1)N1C[C@@H](Cc2ccccc2)N(CCc2ccc(Cl)c(Cl)c2)C1=N  Protein AF-9 (Homo sapiens) (UniProt P42568)   5.41 µM

Provide AC50, system Protein AF-9 (Homo sapiens) (UniProt P42568), entry CN(C)c1ccc(/C=C/C=C/c2sc3ccccc3[n+]2C)cc1
2.09 µM

Provide the reported AC50 (system: Protein AF-9 (Homo sapiens) (UniProt P42568)) for CCN(CCCNc1cc2c(c(N)c1S(=O)(=O)O)C(=O)c1ccccc1C2=O)c1ccccc1
3.65 µM

Give AC50 for CN(C)c1cc2c3ccccc3n(C)c2cc1N tested on Protein AF-9 (Homo sapiens) (UniProt P42568).
1.08 µM

Please report AC50 with Protein AF-9 (Homo sapiens) (UniProt P42568) for item CC[n+]1c(/C=C/C=C/c2ccc(N(C)C)cc2)sc2ccccc21 .
0.522 µM

Enter AC50 (test system Protein AF-9 (Homo sapiens) (UniProt P42568)) for CCOC(=O)c1c(-c2ccc(-c3ccccc3)cc2)csc1NC(=O)CNCCN(C)C
5.86 µM

Identify measured AC50 obtained with Protein AF-9 (Homo sapiens) (UniProt P42568) for O=C(N/N=C/c1c(O)ccc2ccccc12)c1ccc[n+](CCO)c1 .
0.257 µM

Provide the reported AC50 (system: Protein AF-9 (Homo sapiens) (UniProt P42568)) for Cc1cc(N=Nc2ccc3ccccc3c2)ccc1O
9.43 µM

Lab note: Protein AF-9 (Homo sapiens) (UniProt P42568) assay, enter AC50 for NCC(O)c1cc(O)c(O)cc1F (stereo unspecified) here
6.14 µM

State recorded AC50 with Protein AF-9 (Homo sapiens) (UniProt P42568), entry CC1NC(=O)NC1CCCCCC(=O)Nc1ccc(F)c(Cl)c1 (stereo unspecified) , no comment.
< 0.08 µM

Provide measured AC50 on Protein AF-9 (Homo sapiens) (UniProt P42568) for COc1ccc(NCc2ccc(OC)c(Cn3ccnc3)c2)c(OC)c1 please.
11.2 µM
